Origin of measurements: PubChem BioAssay (NCI)

# test.method.notes: NCI Yeast Anticancer Drug Screen. Data for the cln2 rad14 strain (AID 165);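 further: 0% = growth equal to vehicle treated cultures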
# measurement.conditions: S. cerevisiae cln2 rad14 strain, at 50.0 µM, hits give high values
The panel holds about 79,000 compounds, 15% with a hit somewhere; the sample as a whole holds those more often. Activity calls are given as the source filed them. No stated cut-off is given here; in the data, active means growth inhibition above about 70%; inactive means the rest. Where a SMILES comes first, the peptide text is derived from it.
Measured growth inhibition of individual entries

compound: COc1ccc(Nc2cc[nH]c(=O)c2NC(C)=O)cc1
growth inhibition: 14.7% (inactive)
//
compound: Cc1cccc(F)c1C
growth inhibition: 6.1% (inactive)
//
compound: CC(C)(CCCOc1ccccc1)NC(=O)c1ccccc1
growth inhibition: 15.5% (inactive)
//
compound: Cc1c(C(=O)O)n2cnnc2c2ccccc12
growth inhibition: 11.9% (inactive)
//
compound: O=c1c2ccccc2oc2cc([N+](=O)[O-])cc([N+](=O)[O-])c12
growth inhibition: 38.4% (inactive)
//
compound: CC1(c2cccc[n+]2Cc2ccc(Cl)c(Cl)c2)OCCO1
growth inhibition: -18.3% (inactive)
//
compound: O=P(O)(O)c1ccccc1Oc1ccccc1
growth inhibition: 29.1% (inactive)
//
compound: O=C(O)c1ccc(C2COc3ccc(Cl)cc3C2)cc1 (configuration not stated)
growth inhibition: 4.7% (inactive)
//
compound: Cc1ccccc1N=Cc1ccccc1O.[Co]
growth inhibition: -17.4% (inactive)
//
compound: CC(=O)NC(C(=O)N1CCCC1C(=O)O)C(C)C (stereo not drawn) (Ac-Val-Pro-OH; configuration not given here)
growth inhibition: 1.7% (inactive)
//
compound: O=c1[nH]c2cccnc2c(=O)n1O
growth inhibition: -39.8% (inactive)
//
compound: CC12O[C@H](c3ccccc3)[C@H](c3ccccc3)N1C(=O)C1(C(=O)OCc3ccccc3)CC12 (some centres not stated)
growth inhibition: 2.15% (inactive)
//
compound: COc1cc(N)ccc1C(=O)NC(CCC(=O)O)C(=O)O (configuration not stated)
growth inhibition: -33.7% (inactive)
//
compound: N#CCCN(C1=NN(C(=O)CC(=O)Nc2ccccc2Cl)C(c2ccccc2)C1)c1ccc(Cl)cc1 (configuration not stated)
growth inhibition: 25.9% (inactive)
//
compound: CC(C)CNC(=S)N/N=C/C=C/c1ccc([N+](=O)[O-])cc1
growth inhibition: -16.7% (inactive)
//
compound: Cc1cccc2nnc(CCCc3nnc4cccc(C)n34)n12
growth inhibition: -34.4% (inactive)
//
compound: NC(N)=N/N=C1/C(=O)N(C2CCCCCC2)C(=O)C1C(=O)NC1CCCCCC1 (configuration not stated)
growth inhibition: 23.9% (inactive)
//
compound: CC12CC3CC(C)(C1)CC(SCCN=C(N)CCl)(C3)C2
growth inhibition: 96.3% (active)
//
compound: O=[N+]([O-])c1ccc2c(N3CCC(CCCC4CCN(c5ncnc6cc([N+](=O)[O-])ccc56)CC4)CC3)ncnc2c1
growth inhibition: 19.2% (inactive)
//
compound: Cn1c([N+](=O)[O-])cnc1/C=C1\CCc2cc(OCCN3CCCC3)ccc2C1=O
growth inhibition: 21.6% (inactive)
//
compound: NC(=O)c1ccccc1N=NNc1ccccc1
growth inhibition: -28.5% (inactive)
//
compound: C[C@@H]1C(=O)OCC2=C3C[C@@H](CC[C@@]3(C)C=CC2=O)[C@H](C)C(=O)OCC2=C3C[C@H]1CC[C@@]3(C)C=CC2=O
growth inhibition: 15.7% (inactive)
//
compound: CC(C)CCCC(C)C1CCC2C3CCC4CC(=O)CCCC4(C)C3CCC12C (configuration not stated)
growth inhibition: 12.2% (inactive)
//
compound: N#C/C(=C\c1ccccc1)C(NO)Nc1ccccc1 (configuration not stated)
growth inhibition: 0.05% (inactive)
//
compound: CN(C)C(=O)C1Cc2ccccc2CC1C(=O)N(C)C (configuration not stated)
growth inhibition: -21.5% (inactive)
//
compound: O=c1c(-c2ccccc2)c2oc(c1-c1ccccc1)CSCc1cccc(c1)CSC2
growth inhibition: -28.9% (inactive)
//
compound: CCN(CC)C(=O)Sc1ccc(SC(=O)N(CC)CC)cc1
growth inhibition: -5.65% (inactive)
//
compound: CC(C)N(C(=O)c1cccc(C(=O)N(C(C)C)C(C)C)c1)C(C)C
growth inhibition: 11.3% (inactive)
//
compound: CCN(CC)CCOc1ccc(C)c2c1C(=O)CC2
growth inhibition: -8.7% (inactive)
//
compound: Cc1ccc(NC(=O)c2ccccc2[N+](=O)[O-])cc1
growth inhibition: 20.4% (inactive)
//
compound: c1ccc(Cn2c(-c3ccccc3)c[n+]3ccccc23)cc1
growth inhibition: -49.4% (inactive)
//
compound: CC1C2CC(CC(=O)N2)C1(C)C (configuration not stated)
growth inhibition: 15.1% (inactive)

* * *

# test.method.notes: NCI Yeast Anticancer Drug Screen. Data for the bub3 strain (AID 167)
# measurement.conditions: S. cerevisiae bub3 mutant strain, at 50.0 µM, hits give high values
# Procedure: Growth inhibition of yeast strains with defined genetic alterations is measured as a screen for potential anti-cancer activity. Selected strains with alterations in DNA damage repair or cell cycle control were exposed to compounds and growth inhibition was measured relative to vehicle treated controls. The strain used in this assay is bub3
This is part of a sample that, as a whole, favours compounds with a hit. Of some 79,000 tested, about 15% had one in any assay.
Binning scheme for growth inhibition: range A: < -20%; range B: ≥ -20% and < 20%; range C: ≥ 20%

compound: COc1cc(CC2C(=O)NC(=O)NC2=O)ccc1OCc1ccccc1
classification: range A
//
compound: c1ccc2cc(N3CCOCC3)ccc2c1
classification: range A
//
compound: O=c1[nH]c(-c2ccc(-c3nc4cc([N+](=O)[O-])ccc4c(=O)[nH]3)cc2)nc2cc([N+](=O)[O-])ccc12
classification: range A
//
compound: Nc1ccc(S(=O)(=O)c2cnc(N)s2)cc1
classification: range B
//
compound: CCOC(=O)CCc1c(C)c2c(O)cc(O)cc2oc1=O
classification: range A
//
compound: COC(=O)C1=Cc2cc(OC)c(OC)cc2[C@H](c2ccc(OC)c(OC)c2)C1C(=O)OC (stereo partly drawn)
classification: range B
//
compound: O=C(O)CC(=O)C(C(=O)O)C(CCc1ccccc1)C(C(=O)O)C(=O)CC(=O)O (stereo not drawn)
classification: range B
//
compound: CCN(CC)CCOC(=O)c1ccc(N=Nc2cc(C(=O)O)ccc2O)cc1
classification: range B
//
compound: CCCCOP(=O)(Cc1ccc(Cl)cc1Cl)OCCCC
classification: range C
//
compound: CCOC(=O)C1=C(NC(C)(C)C)OC/C1=N\NC(=O)Cc1ccccc1
classification: range C

* * *

Measured growth inhibition of individual entries
# test.method.notes: NCI Yeast Anticancer Drug Screen. Data for the bub3 strain (AID 167)
# measurement.conditions: S. cerevisiae bub3 mutant strain, at 50.0 µM, hits give high values
Compounds without any hit were thinned out: in the full panel of roughly 79,000, 15% have a hit.

compound: O=C1NC(=O)C2(N1)c1ccccc1-c1ccc(Br)cc12 (centres undefined)
endpoint.unit: %
growth inhibition: 0.15

compound: Cc1ccccc1-c1nnc(-c2ccc3ccccc3c2)o1
endpoint.unit: %
growth inhibition: 1.05

compound: COc1ccc(/C=C/C(=O)c2ccc3c(c2)OCO3)cc1OC
endpoint.unit: %
growth inhibition: -33.7

compound: CCOC(=O)/C=C\C(=O)OCC
endpoint.unit: %
growth inhibition: 9.95

compound: CC(=O)OCC1OC(n2cnc(Br)c2[N+](=O)[O-])C(OC(C)=O)C1OC(C)=O (centres undefined)
endpoint.unit: %
growth inhibition: 0.65

compound: COc1ccc(NC(=O)N(C)C)cc1OC
endpoint.unit: %
growth inhibition: 4.4

compound: CC(=O)N(c1ccccn1)c1ccccn1
endpoint.unit: %
growth inhibition: 0.5

compound: Cc1ccc(NC(=O)CCCC(=O)C(C#N)c2ccccc2Cl)cc1C (centres undefined)
endpoint.unit: %
growth inhibition: -10.1

compound: COc1ccccc1C1c2cc3c(cc2OC(O)(CO)C1C(=O)O)OCO3 (centres undefined) (tested in a mixture with another compound)
endpoint.unit: %
growth inhibition: -20.6

compound: COC(C)CCOC(=O)c1ccccc1C (centres undefined)
endpoint.unit: %
growth inhibition: 24.9

compound: CCCCCCN(C(=O)Oc1ccccc1)C(C#N)c1ccccc1 (centres undefined)
endpoint.unit: %
growth inhibition: 1.75

compound: CN(C)C1C(CO)C(CO)C1(C)C (centres undefined)
endpoint.unit: %
growth inhibition: -2.25

compound: CS(=O)(=O)OC1COCOC1C1OCOCC1OS(C)(=O)=O (centres undefined)
endpoint.unit: %
growth inhibition: -6

compound: CNC1(C(N)=O)CCN(Cc2ccccc2)CC1
endpoint.unit: %
growth inhibition: -3.6

compound: CC(OC(C)C(N)=O)C(N)=O (centres undefined)
endpoint.unit: %
growth inhibition: 4.9

compound: N=c1oc2cc(O)ccc2cc1C(=O)NCc1ccccc1
endpoint.unit: %
growth inhibition: -8.25

compound: CC(=O)Nc1ccc(C(=O)NN2C(=O)CSC2c2ccc(O)cc2)cc1 (centres undefined)
endpoint.unit: %
growth inhibition: -30.2

compound: COc1cc2ccc1-c1cc(ccc1O)CC1c3cc4c(cc3CCN1C)Oc1c(OC)cc3c(c1O4)C(C2)N(C)CC3 (centres undefined)
endpoint.unit: %
growth inhibition: -6.15

compound: CCCNC(=O)Oc1ccccc1C(N)=O
endpoint.unit: %
growth inhibition: 8
